B1: Zinc finger homeobox protein 3, residues 2147 to 2202; numbered along this chain, Q15911 (parent)
chain: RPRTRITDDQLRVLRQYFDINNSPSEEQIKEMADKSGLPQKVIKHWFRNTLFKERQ

Variants of: B1
Test protocol: abundance fitness (aPCA) (normalised: wild type 0, dead -1); higher = more abundant; growth selection in yeast, the domain comes from the species named
Test settings: Homo sapiens
Using abundance fitness as the sorting value, the categories are class A: < -0.3; class B: ≥ -0.3 and < -0.08; class C: ≥ -0.08

Here are 10 variants together with their reported answers.
   mutation_descriptor    class
0                 D34W  class A
1                 I20W  class B
2                 D19T  class C
3                 P24N  class A
4                 I43V  class C
5                 R15E  class C
6                 S23K  class C
7                 Q28N  class B
8                 L14W  class A
9                 R12I  class C

Task: Could you tell me which band I20A belongs to?
Result: class C

Task: Lab log: A33R — assign abundance fitness category
Result: class B

Task: Which of the defined bands does the recorded abundance fitness of T50A sit within?
Result: class B
